Assignment: determine reported logkwC8 for the given compounds.
Test: C8 chromatography (RP-HPLC), logkw from two gradients with DryLab
Type: physicochemical
Settings: pH 7.4, 40 °C; retention factor extrapolated to 0% organic modifier

Give its logkwC8 value. Item: Cc1cc(S(=O)(=O)Nc2nnc(C)c(=O)[nH]2)c(SCc2cccc3ccccc23)cc1Cl
3.69

Give its logkwC8 value. Item: CC(=O)NS(=O)(=O)c1cc(C)c(Cl)cc1SCc1cccc2ccccc12
3.66

Give its logkwC8 value. Item: Cc1cc(S(=O)(=O)Nc2nnc(Cc3ccccc3)c(=O)[nH]2)c(SCc2cc3c(cc2Cl)OCO3)cc1Cl
4.07

Give its logkwC8 value. Item: Cc1ccc(NC(=O)c2cc(S(=O)(=O)Nc3nncc(-c4ccc(C(F)(F)F)cc4)n3)c(SCc3ccccc3)cc2Cl)cc1
4.49

---

Assay: C18 chromatography (RP-HPLC), chromatographic hydrophobicity index
Assay type: physicochemical
Conditions: Waters Symmetry C18 column; CHI log D = 0.0525 CHIC18 − 1.467; pH 7.4
Assignment: determine reported chromatographic logD for the given compounds.

Give its chromatographic logD value. Item: Cc1ccc2cccnc2c1NS(=O)(=O)c1ccc(-n2cccc2)cc1 [Compound 3]
3.51

Give its chromatographic logD value. Item: COc1ccc(-c2cnnc(NS(=O)(=O)c3cc(C(=O)Nc4ccc(C)cc4)c(Cl)cc3SCc3ccccc3)n2)cc1 [Compound 18]
2.88

Give its chromatographic logD value. Item: Cc1cc(S(=O)(=O)Nc2nnc(-c3ccccc3)c(=O)[nH]2)c(SCc2cccc3ccccc23)cc1Cl [Compound 10]
2.96

Give its chromatographic logD value. Item: Cc1cc(S(=O)(=O)Nc2nncc(-c3cccc(F)c3)n2)c(SCc2ccccc2)cc1Cl [Compound 13]
2.62

Give its chromatographic logD value. Item: O=C(Nc1ccc(Cl)cc1)c1cc(S(=O)(=O)Nc2nncc(-c3ccc(C(F)(F)F)cc3)n2)c(SCc2ccccc2)cc1Cl [Compound 15]
3.39

Give its chromatographic logD value. Item: O=S(=O)(Nc1cccc2cccnc12)c1ccc(-n2cccc2)cc1 [Compound 2]
3.65

Give its chromatographic logD value. Item: CC(=O)NS(=O)(=O)c1cc(C)c(Cl)cc1SCc1cccc2ccccc12 [Compound 26]
2.95

Give its chromatographic logD value. Item: COc1ccc(-c2cnnc(NS(=O)(=O)c3cc(C(=O)Nc4ccc(Cl)cc4)c(Cl)cc3SCc3ccccc3)n2)cc1 [Compound 16]
3.04

---

Assay: Cyanopropyl (CN) chromatography, logkw from two gradients with DryLab
Type: physicochemical
Conditions: Cyanopropyl chromatography, pH 7.4; short and long gradient
property.measured: logkw, Table S5
Answer as a number with no unit attached.

Give its logkw, Table S5 value. Item: Cc1cc(S(=O)(=O)Nc2nncc(-c3cccc(F)c3)n2)c(SCc2cccc3ccccc23)cc1Cl
2.356

Give its logkw, Table S5 value. Item: Cc1cc(S(=O)(=O)Nc2nncc(-c3ccc(C(F)(F)F)cc3)n2)c(SCc2ccc(C(F)(F)F)cc2)cc1Cl
2.110

Give its logkw, Table S5 value. Item: Cc1ccc2cccc(NS(=O)(=O)c3ccc(-n4cccc4)cc3)c2n1
3.628

Give its logkw, Table S5 value. Item: COc1ccc(NC(=O)c2cc(S(=O)(=O)Nc3nncc(-c4ccc(OC)cc4)n3)c(SCc3ccccc3)cc2Cl)cc1
2.211

Give its logkw, Table S5 value. Item: Cc1ccnc(NS(=O)(=O)c2ccc(-n3cccc3)cc2)n1
1.580

Give its logkw, Table S5 value. Item: Cc1ccc(NC(=O)c2cc(S(=O)(=O)Nc3nncc(-c4ccc(C(F)(F)F)cc4)n3)c(SCc3ccccc3)cc2Cl)cc1
2.544

Give its logkw, Table S5 value. Item: Cc1cc(S(=O)(=O)Nc2nncc(-c3cccc(F)c3)n2)c(SCc2ccccc2)cc1Cl
2.037
